Reference for the values: ChEMBL document CHEMBL3351924

# method_notes: Cytotoxicity against mouse P815B cells after 24 hrs by MTS/PMS assay
# test_settings: P815B cells
measure: CC50 at 24 h (µM)
Record the value in µM, omitting the unit from your answer.

// query CC50 at 24 h value for entry "O=c1ccsn1-c1cccc(Cl)c1F"
10

Another compound to look at: Clc1ccc(C(Cn2ccnc2)OCc2c(Cl)cccc2Cl)c(Cl)c1 (stereo not given)
10

Another compound to look at: "Cc1ccc(-n2nnnc2C/C=N/Nc2ccc(Cl)cc2)cc1"
10

Another compound to look at: Clc1ccc(C(Cn2ccnc2)OCc2csc3c(Cl)cccc23)c(Cl)c1 (stereo not given)
10

Another compound to look at: c1ccc(-c2ccc(C(c3ccccc3)n3ccnc3)cc2)cc1 (stereo not given)
10

Another compound to look at: "COC(=O)/C(C#N)=C(\C#N)c1ccc(Br)o1"
5

Another compound to look at: CC(=O)N1CCN(c2ccc(OCC3COC(Cn4ccnc4)(c4ccc(Cl)cc4Cl)O3)cc2)CC1 (stereo not given)
25

Another compound to look at: "N=C(N)SCc1nc(-c2ccc(Cl)cc2)no1"
10

Another compound to look at: "CCOC(=O)c1ccc(-n2sccc2=O)cc1"
10

Another compound to look at: Clc1ccc(COC(Cn2ccnc2)c2ccc(Cl)cc2Cl)cc1 (stereo not given)
10
